Source listed as ChEMBL document CHEMBL5058564.

system: Fibroblast; assay: Incucyte cell viability with human fibroblast; format: toxicity, cell-based; details: 18 h, 10 µM, compound concentration 10 uM, replicate number 1, timepoint 18 hours; note: unitless GR value; below 1 slowed growth and below 0 cell loss
Each item that follows carries a reported Growth Rate.
measuredProperty: Growth Rate

compound=CSCC[C@H](NC=O)C(=O)N[C@@H](CC(C)C)C(=O)N[C@@H](Cc1ccccc1)C(=O)O experimentalsystem=Fibroblast reading=0.58
compound=COc1cc2c(Oc3ccc(NC(=O)C4(C(=O)Nc5ccc(F)cc5)CC4)cc3F)ccnc2cc1OCCCN1CCOCC1 experimentalsystem=Fibroblast reading=-0.93
compound=CCCN(CCC)[C@@H]1CCc2ccc3[nH]c(C#N)cc3c2C1.Cl experimentalsystem=Fibroblast reading=0.97
compound="C[N+]1(C)[C@@H]2C[C@@H](OC(=O)C(O)(c3cccs3)c3cccs3)C[C@H]1[C@@H]1O[C@@H]12.O.[Br-] [TIOTROPIUM BROMIDE]" experimentalsystem=Fibroblast reading=1

====

test system: U2OS; assay: Incucyte cell viability with U2OS; format: toxicity, cell-based; conditions: human, 12 h, 10 µM, compound concentration 10 uM, replicate number 2, timepoint 12 hours; note: unitless GR value; below 1 slowed growth and below 0 cell loss
Friendly reminder: Growth Rate below 0.9 is satisfied, at or above is not satisfied.

compound="C[C@H]1[C@H](OC(=O)CCC(=O)O)O[C@@H]2O[C@@]3(C)CC[C@H]4[C@H](C)CC[C@@H]1[C@@]24OO3 [ARTESUNATE]" qualitativelabel=satisfied
compound="Cl.Cl.NCCc1c[nH]cn1 [HISTAMINE DIHYDROCHLORIDE]" qualitativelabel="not satisfied"
compound=Cc1nn(C)c2nc(NNC(=O)Nc3cc(Cl)nc(Cl)c3)cc(C(C)C)c12 qualitativelabel="not satisfied"
compound="CN1[C@@H]2CC[C@H]1C[C@@H](OC(=O)C(CO)c1ccccc1)C2 (stereo not given in full)" qualitativelabel="not satisfied"
compound=COc1cc(C(=O)N2CC[C@@H](O)[C@@H](N)C2)cc2nc(-c3cc4ccccc4n3CC3CC3)n(C)c12.Cl qualitativelabel="not satisfied"
compound=N=C(N)NCCC[C@@H](NC(=O)C(c1ccccc1)c1ccccc1)C(=O)NCc1ccc(CNC(N)=O)cc1.O=C(O)C(F)(F)F.O=C(O)C(F)(F)F qualitativelabel="not satisfied"
compound=CN(c1ncccc1CNc1ccnc(-c2cc3cc(Cl)ccc3[nH]2)n1)S(C)(=O)=O qualitativelabel=satisfied
compound=CC[C@H]1CN2CCc3cc(OC)c(OC)cc3[C@@H]2C[C@@H]1C[C@H]1NCCc2cc(OC)c(OC)cc21 qualitativelabel=satisfied
compound=N#Cc1c(N)nc(SCc2csc(-c3ccc(Cl)cc3)n2)c(C#N)c1-c1ccc(OCCO)cc1 qualitativelabel=satisfied
compound=CC(C)Oc1ccc(-c2nc(-c3cccc4c3CC[C@@H]4NCCO)no2)cc1C#N qualitativelabel=satisfied
compound=O=C1COc2nccc(-c3ccccc3F)c2CN1Cc1cc(C(F)(F)F)cc(C(F)(F)F)c1 qualitativelabel="not satisfied"
compound=C=CCNc1ncnc2ccc(Br)cc12 qualitativelabel=satisfied

====

system: HEK-293T; assay: Incucyte cell viability with HEK293T; assay type: toxicity, cell-based; conditions: human, 18 h, 10 µM, compound concentration 10 uM, replicate number 1, timepoint 18 hours; note: unitless GR value; below 1 slowed growth and below 0 cell loss
Where a SMILES comes first, the peptide text is derived from it. [ ]: non-standard residue; d: D form.
Friendly reminder: Growth Rate below 0.7 is Yes, at or above is No.

compound=COc1ccc2nc3ccc(OC)cc3c(SCCCN)c2c1.Cl experimentalsystem=HEK-293T qualitativelabel=Yes
compound="O=C(O)CCC/C=C\\CC1C(O)CC(O)C1/C=C/C(O)COc1cccc(Cl)c1 (stereo not drawn) [CLOPROSTENOL]" experimentalsystem=HEK-293T qualitativelabel=No
compound=O=C1COc2nccc(-c3ccccc3F)c2CN1Cc1cc(C(F)(F)F)cc(C(F)(F)F)c1 experimentalsystem=HEK-293T qualitativelabel=No
compound="CC(C)C[C@@H]1NC(=O)[C@@H](C(C)C)NC(=O)[C@@H]2CCCN2C(=O)[C@@H](CC(=O)O)NC(=O)[C@@H](Cc2c[nH]c3ccccc23)NC1=O [BQ-123] (cyclo(L[dW][dD]P[dV]))" experimentalsystem=HEK-293T qualitativelabel=No
compound="Cl.Cl.NCCc1c[nH]cn1 [HISTAMINE DIHYDROCHLORIDE]" experimentalsystem=HEK-293T qualitativelabel=No
compound="CSc1ccccc1N1CCN(CCCCCC(=O)NC2CCCc3ccccc32)CC1.Cl (stereo not drawn)" experimentalsystem=HEK-293T qualitativelabel=Yes
compound="N#Cc1cc2c(OCC(O)CN3CCN(C(c4ccccc4)c4ccccc4)CC3)cccc2[nH]1 (racemic)" experimentalsystem=HEK-293T qualitativelabel=Yes
